ASSAY_TEXT: Clearance in rat at 1 mg/kg, iv and 10 mg/kg, po
Assay type: ADME, organism-based
SETTINGS: in vivo
MEASURED_ATTRIBUTE: clearance (mL/min/kg)
Write the answer as a number in mL/min/kg, unit excluded.

What does the record list as clearance for O[C@@H](CNc1cc(-c2ccc(C(F)(F)F)c(Cl)c2)ncn1)c1ccccc1 ? 8

====

Target protein (sequence): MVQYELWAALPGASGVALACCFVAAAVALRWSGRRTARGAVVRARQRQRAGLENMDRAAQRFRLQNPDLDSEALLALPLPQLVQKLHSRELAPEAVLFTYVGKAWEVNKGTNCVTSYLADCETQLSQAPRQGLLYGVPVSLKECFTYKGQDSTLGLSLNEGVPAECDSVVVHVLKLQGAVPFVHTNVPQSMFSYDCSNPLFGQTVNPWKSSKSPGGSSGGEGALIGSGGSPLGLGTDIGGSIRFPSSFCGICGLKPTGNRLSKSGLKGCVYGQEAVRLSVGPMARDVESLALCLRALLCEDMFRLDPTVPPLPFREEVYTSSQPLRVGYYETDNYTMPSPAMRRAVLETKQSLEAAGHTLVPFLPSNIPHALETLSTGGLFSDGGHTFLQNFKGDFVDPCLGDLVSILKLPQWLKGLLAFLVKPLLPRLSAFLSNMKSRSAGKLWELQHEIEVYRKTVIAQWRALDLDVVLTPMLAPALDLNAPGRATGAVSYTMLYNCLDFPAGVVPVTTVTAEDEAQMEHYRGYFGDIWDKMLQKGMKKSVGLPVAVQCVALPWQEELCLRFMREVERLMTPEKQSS
pIC50: −log10 of the molar value.
Returns yes if the recorded pIC50 is greater than or equal to 7, and no otherwise.

Could you verify whether the entry OC(CNc1cc(-c2ccc(C(F)(F)F)c(Cl)c2)ncn1)c1ccc(F)c(Cl)c1 (racemic) shows pIC50 of no less than 7? yes

Could you verify whether the entry OC(CNc1cc(-c2ccc(C(F)(F)F)c(Cl)c2)ncn1)c1cccc(C(F)(F)F)c1 (racemic) shows pIC50 of no less than 7? no

Could you verify whether the entry OC(CNc1cc(-c2ccc(C(F)(F)F)c(Cl)c2)ncn1)c1ccc(Cl)c(F)c1 (racemic) shows pIC50 of no less than 7? yes

Could you verify whether the entry N#Cc1ccc(C(O)CNc2cc(-c3ccc(C(F)(F)F)c(Cl)c3)ncn2)cc1 (racemic) shows pIC50 of no less than 7? yes

Could you verify whether the entry N#Cc1ccc(-c2cc(NC[C@H](O)c3ccccc3)ncn2)cc1 shows pIC50 of no less than 7? no

Could you verify whether the entry CSc1ccc(-c2cc(NCC(O)c3ccccc3)ncn2)cc1 (racemic) shows pIC50 of no less than 7? yes

Could you verify whether the entry OC(CNc1cc(-c2cccc(Cl)c2)ncn1)c1ccccc1 (racemic) shows pIC50 of no less than 7? no
